Please respond with reported composite z-score for every item in the list.
Tgt: Pro-neuregulin-1, membrane-bound isoform (Homo sapiens) (UniProt Q02297)
Sequence (Q02297 whole entry, looked up, canonical isoform): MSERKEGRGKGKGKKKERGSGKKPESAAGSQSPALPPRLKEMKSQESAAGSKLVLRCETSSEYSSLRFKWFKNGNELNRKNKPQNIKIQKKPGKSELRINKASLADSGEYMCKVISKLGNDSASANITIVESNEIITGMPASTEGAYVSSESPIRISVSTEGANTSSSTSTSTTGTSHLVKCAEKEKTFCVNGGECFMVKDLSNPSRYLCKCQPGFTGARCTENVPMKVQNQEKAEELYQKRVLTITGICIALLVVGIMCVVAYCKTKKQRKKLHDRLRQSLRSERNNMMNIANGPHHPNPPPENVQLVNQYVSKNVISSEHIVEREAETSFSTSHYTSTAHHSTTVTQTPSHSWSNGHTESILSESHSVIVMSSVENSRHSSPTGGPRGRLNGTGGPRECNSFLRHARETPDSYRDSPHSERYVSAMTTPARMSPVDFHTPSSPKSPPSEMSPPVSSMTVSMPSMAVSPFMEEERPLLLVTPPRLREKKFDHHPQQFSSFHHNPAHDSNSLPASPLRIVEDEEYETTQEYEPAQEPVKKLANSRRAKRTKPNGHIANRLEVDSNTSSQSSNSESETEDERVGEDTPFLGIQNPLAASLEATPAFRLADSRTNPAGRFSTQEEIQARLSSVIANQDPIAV
Measurement description: NRG1 binders on small-molecule microarrays, primary screen, psychiatric disease protein project, biochemical, small-molecule microarray, fluorescence 635/667 (AID 1075);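 further: score combines 667 nm spot fluorescence with signal to noise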
Run conditions: NRG1 binding, 635 nm fluorescence, higher = more signal
Just the number, please, no unit after it.

Given COc1ccc([Si](C)(C)[C@@H]2[C@@H](CC(=O)N3CCC[C@H]3CO)O[C@]3(C(=O)N(Cc4ccc(I)cc4)c4ccccc43)[C@H]2C)cc1 , state its recorded composite z-score.
0.805

Given COC(=O)c1c(CC[C@@H](CO)NC(=O)Nc2ccc(OC)cc2)oc(C(=O)Cc2ccccc2)c1C(=O)OC , state its recorded composite z-score.
0.191

Given C=CCNC(=O)[C@@H]1[C@H]2C(=O)O[C@H](c3ccccc3)[C@H](c3ccccc3)N2[C@H](c2ccc(O)cc2)[C@@]12C(=O)N(C(=O)OCCOC)c1ccc(C#Cc3ccc(OC)cc3)cc12 , state its recorded composite z-score.
1.41

* * *

Measurement description: small-molecule microarray binders of probe aShh, primary screen, biochemical, biotinylated probe, 635/667 nm fluorescence (AID 1114);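 further: probe is biotin-labelled aShh protein from a stem cell growth factor screen; measures binding of labelled protein to compounds printed on the slide; score merges feature fluorescence at 667 nm with signal-to-noise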
Run conditions: higher = more signal
Assay metric: composite z-score
Just the number, please, no unit after it.

Given O=C1O[C@@H](c2ccccc2)[C@@H](c2ccccc2)N2[C@@H](c3ccc(OCCO)cc3)[C@]3(C(=O)Nc4ccc(C#CC5(O)CCCCCC5)cc43)[C@@H](C(=O)NC[C@H](O)c3ccccc3)[C@H]12 , state its recorded composite z-score.
0.172

Given CC(C)[Si](C#C[Si](C(C)C)(C(C)C)C(C)C)(O[C@H](C)c1cn([C@H](C)c2ccccc2)nn1)C(C)C , state its recorded composite z-score.
-0.138

Given CC(C)(C)OC(=O)CC[C@@]12N=C(c3ccc(OCCCO)cc3)O[C@@H]1c1ccccc1N(Cc1ccccc1)C2=O , state its recorded composite z-score.
0.138

Given O=C(NCC(F)(F)F)[C@@H]1c2ccccc2C(=O)N(C2Cc3ccccc3C2)[C@H]1c1ccc(CO)cc1 , state its recorded composite z-score.
0.267

Given COc1ccc(C#Cc2ccc3c(c2)[C@]2(C(=O)N3)[C@H](c3ccc(O)cc3)N3[C@H](c4ccccc4)[C@H](c4ccccc4)OC(=O)[C@H]3[C@@H]2C(=O)N2CCN(c3ncccn3)CC2)cc1 , state its recorded composite z-score.
0.842

Given COC(=O)C1=CC(CCCO)=CC(C2CC2)N(Cc2cc3c(cc2Br)OCO3)C=C1C(=O)OC (configuration not stated) , state its recorded composite z-score.
0.0141

Given COCCOC(=O)N1C(=O)[C@@]2(c3ccccc31)[C@H](C(=O)Nc1nc3ccccc3s1)[C@H]1C(=O)O[C@H](c3ccccc3)[C@H](c3ccccc3)N1[C@@H]2c1ccc(O)cc1 , state its recorded composite z-score.
0.489

* * *

Please respond with reported z-score for every item in the list.
Tgt: NADPH oxidase 5 (Homo sapiens)
Measurement description: NOX5-dependent H2O2 signal modulators, primary screen, NOX inhibitor project, cell-based, HEK293-NOX5, Amplex Red fluorescence (AID 1161)
Run conditions: HEK293-NOX5, ionomycin, 45 min, higher = more signal
Just the number, please, no unit after it.

Given COc1ccc([Si](C)(C)[C@H]2[C@H](CC(=O)N(CCO)Cc3ccccc3)O[C@@]3(C(=O)N(Cc4ccc(N5CCC5=O)cc4)c4ccccc43)[C@@H]2C)cc1 , state its recorded z-score.
2.96

Given CCCNC(=O)[C@@]1(Sc2ccc(C)cc2)CC(=O)N(Cc2cc(C(F)(F)F)cc(C(F)(F)F)c2)[C@@H]1c1ccc(CO)cc1I , state its recorded z-score.
1.37

Given CC(C)C[C@@H]1NC(=O)[C@@H]2C[C@H](C(=O)NCCCCCNC(=O)CS)[C@H](c3cccc(OCCO)c3)N2C1=O , state its recorded z-score.
0.00283

Given O=C(O)[C@H]1C[C@H]2C(=O)NCC(=O)N2[C@H]1c1cccc(OCCO)c1 , state its recorded z-score.
1.61

Given C=C(C1=CCN(S(=O)(=O)c2ccc(C)cc2)C1)[C@@H](OC(C)=O)[C@@H]1CCCN1S(=O)(=O)c1ccccc1[N+](=O)[O-] , state its recorded z-score.
0.69

Given O=C(N1CCCCC1)[C@@]1(Cc2ccccc2)N=C(c2ccc(OCCCO)cc2)O[C@H]1c1ccccc1 , state its recorded z-score.
-0.326

Given COCCOC(=O)N1C(=O)[C@@]2(c3cc(C#CCNC(N)=O)ccc31)[C@H](C(=O)NC[C@H](O)c1ccccc1)[C@H]1C(=O)O[C@H](c3ccccc3)[C@H](c3ccccc3)N1[C@@H]2c1ccc(O)cc1 , state its recorded z-score.
0.776
